isobaric coefficient of expansion: recorded values
# Experiment notes: isobaric coefficient of expansion
# Recorded conditions: 288.15 K; 50000 kPa; Liquid; Microcalorimeter

Some entries whose results are on file:
Compound | isobaric coefficient of expansion
CCn1cc[n+](C)c1.F[B-](F)(F)F [1-ethyl-3-methylimidazolium tetrafluoroborate] | 0.000554 1/K
CCCC[n+]1cccc(C)c1.F[B-](F)(F)F [1-butyl-3-methylpyridinium tetrafluoroborate] | 0.000558 1/K
CCCCCCCC[n+]1ccn(C)c1.F[B-](F)(F)F [1-methyl-3-octylimidazolium tetrafluoroborate] | 0.000555 1/K

stdin: Which isobaric coefficient of expansion value belongs to CCCCCCn1cc[n+](C)c1.F[B-](F)(F)F [1-hexyl-3-methylimidazolium tetrafluoroborate] ?
stdout: 0.000555 1/K

stdin: Which isobaric coefficient of expansion value belongs to `CCCCCC[n+]1ccn(C)c1.O=S(=O)([N-]S(=O)(=O)C(F)(F)F)C(F)(F)F` ?
stdout: 0.000592 1/K

stdin: Which isobaric coefficient of expansion value belongs to `CCn1cc[n+](C)c1.O=S(=O)([N-]S(=O)(=O)C(F)(F)F)C(F)(F)F` ?
stdout: 0.000597 1/K

====

isobaric coefficient of expansion: recorded values
# Experiment notes: isobaric coefficient of expansion
# Recorded conditions: 298.15 K; 15000 kPa; Liquid; Microcalorimeter

Some entries whose results are on file:
Compound | isobaric coefficient of expansion
CCCCCC[n+]1ccn(C)c1.O=S(=O)([N-]S(=O)(=O)C(F)(F)F)C(F)(F)F | 0.000643 1/K
CCCCCCCC[n+]1ccn(C)c1.F[B-](F)(F)F [1-methyl-3-octylimidazolium tetrafluoroborate] | 0.000595 1/K
CCCC[n+]1cccc(C)c1.F[B-](F)(F)F [1-butyl-3-methylpyridinium tetrafluoroborate] | 0.000582 1/K
CCn1cc[n+](C)c1.F[B-](F)(F)F [1-ethyl-3-methylimidazolium tetrafluoroborate] | 0.000587 1/K
CCn1cc[n+](C)c1.O=S(=O)([N-]S(=O)(=O)C(F)(F)F)C(F)(F)F | 0.000641 1/K

# input for lookup
stdin: Which isobaric coefficient of expansion value belongs to CCCCCCn1cc[n+](C)c1.F[B-](F)(F)F [1-hexyl-3-methylimidazolium tetrafluoroborate] ?
stdout: 0.000595 1/K

====

# Experiment notes: isobaric coefficient of expansion
# Recorded conditions: 318.15 K; 25000 kPa; Liquid; Microcalorimeter
Result type: isobaric coefficient of expansion

Some entries whose results are on file:
Compound | isobaric coefficient of expansion
CCCCCCCC[n+]1ccn(C)c1.F[B-](F)(F)F [1-methyl-3-octylimidazolium tetrafluoroborate] | 0.000566 1/K
CCCCCC[n+]1ccn(C)c1.O=S(=O)([N-]S(=O)(=O)C(F)(F)F)C(F)(F)F | 0.000615 1/K
CCCCCCn1cc[n+](C)c1.F[B-](F)(F)F [1-hexyl-3-methylimidazolium tetrafluoroborate] | 0.000566 1/K

stdin: Which isobaric coefficient of expansion value belongs to CCCC[n+]1cccc(C)c1.F[B-](F)(F)F [1-butyl-3-methylpyridinium tetrafluoroborate] ?
stdout: 0.00056 1/K

stdin: Which isobaric coefficient of expansion value belongs to `CCn1cc[n+](C)c1.O=S(=O)([N-]S(=O)(=O)C(F)(F)F)C(F)(F)F` ?
stdout: 0.000615 1/K

stdin: Which isobaric coefficient of expansion value belongs to CCn1cc[n+](C)c1.F[B-](F)(F)F [1-ethyl-3-methylimidazolium tetrafluoroborate] ?
stdout: 0.000563 1/K

// data source = the NIST ThermoML archive (doi:10.1021/je900482x)
